# System: RAW264.7
# experiment: Anti-inflammatory activity in mouse RAW264.7 cells assessed as inhibition of LPS-induced NO production after 24 hrs by Griess reagent-based assay
# Type: functional, cell-based
# condition notes: RAW264.7, 24 h
pIC50: −log10 of the molar value.
endpoint: pIC50

Answered cases to consult:
{"columns": ["compound", "measured target", "pIC50"],
 "data": [
  ["CC(C)=CCC/C(C)=C/CC/C(C)=C/CC[C@]1(C)CCC2=C(O1)[C@]1(C)C[C@@](O)(Oc3c1occc3=O)C2=O", "RAW264.7", "< 4.70"],
  ["C[C@@H]1C[C@H]2[C@@H]3CCC4=CC(=O)C=C[C@]4(C)[C@@]3(F)[C@@H](O)C[C@]2(C)[C@@]1(O)C(=O)CO [DEXAMETHASONE]", "RAW264.7", 5.08]
]}

Next compound, pIC50 to be filled in.
input: Sample CC(C)=CCC/C(C)=C/CC/C(C)=C/CC[C@]1(C)CCC2=C(O1)[C@@]1(C)C[C@](O)(Oc3c1occc3=O)C2=O — what was its pIC50?
output: < 4.70

---

Recorded IC50, one value per entry.
# Tested on: HepG2
# experiment: Cytotoxicity against human HepG2 cells assessed as reduction in cell viability after 24 hrs by CCK8 assay
# Format: functional, cell-based
# condition notes: HepG2, 24 h

{"columns": ["compound smiles", "IC50"],
 "data": [
  ["CC(C)=CCC/C(C)=C/CC/C(C)=C/CC[C@]1(C)CCC2=C(O1)[C@]1(C)C[C@@](O)(Oc3c1occc3=O)C2=O", "> 20 µM"]
]}

Next compound, IC50 to be filled in.
input: // lookup IC50 | system=HepG2 | key= CC(C)=CCC/C(C)=C/CC/C(C)=C/CC[C@]1(C)CCC2=C(O1)[C@@]1(C)C[C@](O)(Oc3c1occc3=O)C2=O
output: > 20 µM
